- assayedSystem: HIV-1 protease (Human immunodeficiency virus type 1 group M subtype B)
- Construct: The protease (or proteinase), consisting of only 99 amino acids, is among the smallest enzymes known
- testName: In vitro HIV protease inhibitory assay (HIV Protease FITC Assay)
- Type: biochemical
- assayConditions: HIV-1 Dose 10.000 uM; read-out: HIV-1 Protease % Inhib
- Method: The HIV protease screening assay is based on a fluorescently labeled substrate which can be resolved from nonlabeled cleavage product using avidin-polystyrene particles, 0.7-0.9 µm. […] The labeled cleavage product is separated from the unreacted substrate via filtration and is read on the Idexx Screen Machine. The data are analyzed by appropriate computer algorithms to ascertain percent inhibition values.
endpointName: inhibition at 10 µM (%)
Write the value in % as a bare number.

Enquiry: Could you tell me which inhibition at 10 µM is on file for CCC(Cc1ccccc1)c1cc(O)c(C(c2cccc(NS(=O)(=O)c3ccc(C(C)(C)C)cc3)c2)C2CC2)c(=O)o1 (centres unmarked) [Example 183] ?
Return: 88.9

Enquiry: Would you kindly repeat that for CCC(Cc1ccccc1)c1cc(O)c(C(c2cccc(NC(=O)CCn3ccc4ccccc43)c2)C2CC2)c(=O)o1 (centres unmarked) [Example 230] ?
Return: 91.1

Enquiry: Next compound up: O=C1OC(Cc2ccccc2)(c2ccccc2)CC(O)=C1C(/C=C/c1ccccc1)c1ccccc1 (centres unmarked) [Example 172]
Return: 56.8

Enquiry: Subsequent entry: O=c1oc(CCc2ccc(Cl)cc2)cc(O)c1C(c1ccccc1)C1CC1 (centres unmarked) [Example 166]
Return: 62.3

Enquiry: Note, next up: CCC(Cc1ccccc1)c1cc(O)c(C(c2cccc(NS(=O)(=O)c3ccc(C#N)cc3)c2)C2CC2)c(=O)o1 (centres unmarked) [Example 184]
Return: 102

Enquiry: Lookup CCCC1(CCc2ccccc2)CC(O)=C(C(c2ccc(COCOC)s2)C2CC2)C(=O)O1 (centres unmarked) [Example 240]
Return: 113

Enquiry: Consider next the compound CCC(Cc1ccc(Cl)cc1)c1cc(O)c(C(c2ccccc2)C2CC2)c(=O)o1 (centres unmarked) [Example 155] in the same way.
Return: 97.2

Enquiry: Also need CCC(C1=C(O)CC2(CCC(=O)CC2)OC1=NO)c1ccccc1 (centres unmarked) [Example 123] , thanks.
Return: 39.6

Enquiry: Record: C=CC(C1=C(O)CC(Cc2ccccc2)(c2ccccc2)OC1=O)c1ccccc1 (centres unmarked) [Example 168]
Return: 43.4

Enquiry: Moving on to the next compound: C=CC(c1ccccc1)c1c(O)cc(C(CCC)CCC)oc1=O (centres unmarked) [Example 41]
Return: 65.9

Enquiry: What do you get for O=c1oc(CC(O)c2cccc(Cl)c2)cc(O)c1C(c1ccccc1)C1CC1 (centres unmarked) [Example 150] ?
Return: 75.2

Enquiry: Same question, CCC(CC1CCCCN1S(=O)(=O)c1ccc(C)cc1)c1cc(O)c(C(c2ccccc2)C2CC2)c(=O)o1 (centres unmarked) [Example 140] this time
Return: 81.6

Enquiry: Another compound to check: O=c1oc(CCC2CC2)cc(O)c1C(c1ccccc1)C1CC1 (centres unmarked) [Example 89]
Return: 70

Enquiry: Next up: CCC(CC1CCCN(S(=O)(=O)c2ccc(C)cc2)C1)c1cc(O)c(C(c2ccccc2)C2CC2)c(=O)o1 (centres unmarked) [Example 137]
Return: 80.2

Enquiry: How about this compound: CCC(Cc1ccccc1)c1cc(O)c(C(c2cccc(NS(=O)(=O)c3ccc(OC)cc3)c2)C2CC2)c(=O)o1 (centres unmarked) [Example 185]
Return: 103

Enquiry: How about this compound: CCC(c1ccccc1)c1c(O)cc(CCc2ccc(Br)cc2)oc1=O (centres unmarked) [Example 6]
Return: 39.6
